Test system: Candida albicans FP-633
Assay type: cell-based
condition description: FP-633, 24 h, pH 7.3
Experimental: In vitro antimicrobial activity of the object compound of Examples 4, 9, 25 and 30 disclosed later was determined by MICs in mouse serum as described below. The MICs in mouse serum were determined by the microdilution method using ICR mouse serum buffered with 20 mM HEPES buffer (pH 7.3) as a test medium. Inoculum suspension of 10^6 cells/ml were prepared by a hemocytometric procedure and diluted to obtain an inoculum size of approximately 1.0×10^3 cells/ml. […]
Starred links: 1 amine or outer side, 2 acyl side, 3 side chain; linkers in the order of their positions; H or OH if unused. Positions of bridges follow the written chain, without caps; N, C: chain ends. Non-standard residues stand in square brackets, D forms with d. Residues, ends and D or L forms follow the SMILES beside them. *: point of attachment. hTyr(3R-OH,3'-OSO3H) = N[C@H](C(=O)O)[C@H](O)Cc1ccc(O)c(OS(=O)(=O)O)c1; Orn(3R-OH,Nδ-CH(CH2OH)2) = N[C@H](C(=O)O)[C@H](O)CCNC(CO)CO; Orn(4R-OH) = O=C([C@H](C[C@@H](O)CN[*:3])N[*:1])[*:2]; X1 = COCCCCCCOc1ccc(-c2cc(-c3ccc(C(=O)*)cc3)no2)cc1; Pro(3S-OH,4S-Me) = C[C@H]1CN[C@H](C(=O)O)[C@H]1O; Hyp = O=C(O)[C@@H]1C[C@@H](O)CN1
endpoint: MIC

IN: Return MIC (reported value) for this molecule: COCCCCCCOc1ccc(-c2cc(-c3ccc(C(=O)N[C@H]4C[C@@H](O)CNC(=O)[C@@H]5[C@@H](O)[C@@H](C)CN5C(=O)[C@H]([C@H](O)CCNC(CO)CO)NC(=O)[C@H]([C@H](O)Cc5ccc(O)c(OS(=O)(=O)O)c5)NC(=O)[C@@H]5C[C@@H](O)CN5C(=O)[C@H]([C@@H](C)O)NC4=O)cc3)no2)cc1 [Example 25] (X1-[Orn(4R-OH)]T[Hyp][hTyr(3R-OH,3'-OSO3H)][Orn(3R-OH,Nδ-CH(CH2OH)2)][Pro(3S-OH,4S-Me)]; lactam 1-C)
OUT: <0.3 µg/mL
